Sourced from patent US20240067748A1

- TARGET_OR_TEST_SYSTEM: T1, monkey Trop2 protein (Sino Biological, #90893-C08H) (monkey, UniProt A0A2K5UE71 27-274)
- T1 construct: bought protein; also called monkey Trop2 protein antigen (His tag)
- T1 sequence: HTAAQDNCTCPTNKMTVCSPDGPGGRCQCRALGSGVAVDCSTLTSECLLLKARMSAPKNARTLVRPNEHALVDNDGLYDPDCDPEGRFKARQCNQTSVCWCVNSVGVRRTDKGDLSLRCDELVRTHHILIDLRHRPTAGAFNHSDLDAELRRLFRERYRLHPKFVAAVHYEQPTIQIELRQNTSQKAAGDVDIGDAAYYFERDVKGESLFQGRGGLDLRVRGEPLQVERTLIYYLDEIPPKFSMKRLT
- EXPERIMENT: BLI, Octet RED96, AHC sensor
A collection of binders and their measured Response
No unit in the answer, please; the number alone is enough.

[[record]]
binder = "PR001164 (antibody, human IgG1, kappa, V domains shown, fully human IgG1/kappa; also called antibody No. (25)) VH: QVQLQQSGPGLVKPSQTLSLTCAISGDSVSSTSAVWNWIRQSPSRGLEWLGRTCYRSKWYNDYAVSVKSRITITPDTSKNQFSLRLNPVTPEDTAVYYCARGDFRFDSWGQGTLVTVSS VL: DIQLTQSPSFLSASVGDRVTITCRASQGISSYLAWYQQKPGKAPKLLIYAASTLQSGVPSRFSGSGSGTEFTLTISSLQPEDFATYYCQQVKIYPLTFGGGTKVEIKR"
quantitative_readout = 0.173

[[record]]
binder = "PR001163 (antibody, human IgG1, kappa, V domains shown, fully human IgG1/kappa; also called antibody No. (24)) VH: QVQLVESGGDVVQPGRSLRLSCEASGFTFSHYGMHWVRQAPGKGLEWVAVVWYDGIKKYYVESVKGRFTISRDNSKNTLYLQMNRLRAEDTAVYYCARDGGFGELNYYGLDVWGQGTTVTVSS VL: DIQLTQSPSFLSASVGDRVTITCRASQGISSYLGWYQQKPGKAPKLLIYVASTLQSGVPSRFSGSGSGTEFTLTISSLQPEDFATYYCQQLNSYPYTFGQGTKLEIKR"
quantitative_readout = 0.372

[[record]]
binder = "PR001165 (antibody, human IgG1, kappa, V domains shown, fully human IgG1/kappa; also called antibody No. (26)) VH: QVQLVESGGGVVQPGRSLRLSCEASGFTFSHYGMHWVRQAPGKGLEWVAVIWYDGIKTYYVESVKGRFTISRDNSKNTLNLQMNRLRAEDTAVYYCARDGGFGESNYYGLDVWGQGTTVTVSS VL: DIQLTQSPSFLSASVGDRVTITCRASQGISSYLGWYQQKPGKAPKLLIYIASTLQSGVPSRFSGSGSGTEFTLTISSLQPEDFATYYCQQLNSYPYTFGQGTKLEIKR"
quantitative_readout = 0.393

[[record]]
binder = "PR001159 (antibody, human IgG1, kappa, V domains shown, fully human IgG1/kappa; also called antibody No. (21)) VH: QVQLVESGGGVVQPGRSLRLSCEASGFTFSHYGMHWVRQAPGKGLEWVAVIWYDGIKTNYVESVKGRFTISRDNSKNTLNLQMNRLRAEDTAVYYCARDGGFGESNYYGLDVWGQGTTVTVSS VL: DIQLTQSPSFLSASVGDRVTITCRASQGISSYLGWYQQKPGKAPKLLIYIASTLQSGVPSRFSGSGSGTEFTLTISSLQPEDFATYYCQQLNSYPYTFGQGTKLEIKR"
quantitative_readout = 0.372

[[record]]
binder = "PR001130 (antibody, human IgG1, kappa, V domains shown, fully human IgG1/kappa; also called antibody No. (2)) VH: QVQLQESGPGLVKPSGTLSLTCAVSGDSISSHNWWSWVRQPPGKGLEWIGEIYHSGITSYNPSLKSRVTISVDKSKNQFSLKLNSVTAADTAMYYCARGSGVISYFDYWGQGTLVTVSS VL: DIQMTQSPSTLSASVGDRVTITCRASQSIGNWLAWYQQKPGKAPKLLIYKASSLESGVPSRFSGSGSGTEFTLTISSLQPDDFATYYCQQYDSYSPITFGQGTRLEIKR"
quantitative_readout = 0.315


Q: Query: Response; subject: PR001156 (antibody, human IgG1, kappa, V domains shown, fully human IgG1/kappa; also called antibody No. (19)) VH: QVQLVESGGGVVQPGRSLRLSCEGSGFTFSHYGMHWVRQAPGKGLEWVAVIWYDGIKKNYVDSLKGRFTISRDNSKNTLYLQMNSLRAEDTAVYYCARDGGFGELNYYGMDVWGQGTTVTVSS VL: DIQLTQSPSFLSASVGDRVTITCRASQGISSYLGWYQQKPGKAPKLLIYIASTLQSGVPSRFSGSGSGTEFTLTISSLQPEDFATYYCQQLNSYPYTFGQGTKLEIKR
A: 0.349
